Hello, the source for this data is the supplement of paper PMC10567573, in case you need it.

B1: RAB22A (parent)
chain: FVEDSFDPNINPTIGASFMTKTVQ

variants of: B1; assay: protein stability index of a GFP-peptide fusion (GPS, HEK-293T) (PSI 1-6); higher = more stable; details: c terminus: a fixed tail appended;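 also: lentivirally expressed fusions sorted by FACS into six bins by GFP to DsRed ratio, PSI derived from sequencing read proportions per bin multiplied by bin number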
Record 1 (yes) whenever protein stability index is at 2 or higher; record 0 (no) when lower.

Use the examples below as a reference point.
| mut | group |
| --- | --- |
| D7G | 0 (no) |
| K21V | 0 (no) |
| T20V | 1 (yes) |
| M19G | 1 (yes) |
| M19D | 1 (yes) |
| P8A | 1 (yes) |

### Prompt Determine whether this variant has protein stability index no lower than 2: `N9Q`
### Response 1 (yes)

### Prompt Determine whether this variant has protein stability index no lower than 2: `V23H`
### Response 1 (yes)

### Prompt Determine whether this variant has protein stability index no lower than 2: `F18P`
### Response 1 (yes)

### Prompt Determine whether this variant has protein stability index no lower than 2: `S5F`
### Response 1 (yes)

### Prompt Determine whether this variant has protein stability index no lower than 2: `G15T`
### Response 1 (yes)
